These data points were gathered from PubChem BioAssay (NCI).

- System: SNB-19 CNS
- test_details: NCI tumour cell line growth inhibition, 48 h
Kindly supply the reported TGI values for the records listed here.

Query: Answer with the recorded TGI of O=C(/C=C\c1ccccc1)N1CCc2ccccc2C1 only.
Response: > 100 µM

Query: Please look at this compound and report its TGI: CCOC(=O)C(NC(=O)OC(C)(C)C)C(=O)OCC
Response: > 100 µM

Query: Quick one: give measured TGI for N#CC1C=Cc2c(ccc3ccccc23)N1C(=O)c1ccccc1 (configuration not stated)
Response: > 100 µM

Query: # return recorded TGI for entry CN1CCN(C2=CC(=O)c3c(O)ccc(O)c3C2=O)CC1
Response: 3.05 µM

Query: Give the reported value of TGI for this record: COc1ccc(Cn2cc3c(c2-c2cc(OC)c(OC)c(OC)c2)CCc2cnoc2-3)cc1
Response: > 100 µM

Query: Supply reported TGI belonging to this compound: Nc1c(C(=O)Nc2cccc(Cl)c2Cl)sc2nc3c(cc12)C(=O)CCC3
Response: > 100 µM

Query: Fill in TGI for record CC(=O)OC1COC(Nc2nc(N)n(C)c(=O)c2N=O)C(OC(C)=O)C1OC(C)=O (configuration not stated)
Response: > 10 µM

Query: Quick one: give measured TGI for CCC(NC1=NCCO1)c1cccs1 (configuration not stated)
Response: 29.8 µM

Query: Provide TGI value for the following compound: CC1(C)CCc2c(c(N=Nc3ccc(F)cc3)c3ccccc3c2O)O1
Response: > 100 µM

Query: Find the measured TGI of CCCCNC(=O)/N=C/c1c(O)c2ccccc2oc1=O and report it.
Response: > 100 µM

Query: Return TGI for the following compound: CCCC(=O)[O-].N.N.N.N.N.[Co+3].[O-][Cl+3]([O-])([O-])[O-]
Response: > 100 µM

Query: Return value of TGI for input N#CC(C#N)=C1C(=O)NC(N)=C1C#N , no commentary.
Response: > 100 µM

Query: Supply TGI value. Item: O=C1CSc2cc([N+](=O)[O-])ccc2N1
Response: > 100 µM

Query: Input C[C@]12CCC(=O)C=C1CC[C@@H]1C2CC[C@]2(C)c3nn(-c4ccccc4)nc3CC12 (some centres not stated) , output reported TGI.
Response: > 100 µM

Query: Quote TGI reported for Cc1ccc([C@]2(C)CC[C@H](C)/C2=C\Br)c(O)c1 please.
Response: 18.9 µM

Query: State, in one line, measured TGI of OC1C[C@H](c2ccccc2)C2(C(O)c3ccccc3C2O)[C@@H](c2ccccc2)C1 (some centres not stated)
Response: > 100 µM

Query: Please give measured TGI of the following entry: OCCN1CCN(CC/C=C2/c3ccccc3Sc3ccc(Cl)cc32)CC1
Response: 34.9 µM

Query: Consider the compound O=[N+]([O-])c1ccc(C=NC23CC4CC(CC(C4)C2)C3)cc1 and give its recorded TGI.
Response: > 100 µM

Query: Given O=C(CCc1ccc(O)cc1)N/N=C/c1cc(Br)ccc1O , respond with its TGI.
Response: > 100 µM

Query: Supply reported TGI belonging to this compound: NCCCNCCCCN1CC1
Response: > 23.8 µM

Query: Give the measured TGI for COc1ccc2ccc3oc([N+](=O)[O-])cc3c2c1
Response: > 100 µM

Query: In one line, give reported TGI of the entry Oc1cc(Br)cc2cc(Cl)cnc12 .
Response: > 100 µM

Query: Dear colleague, please send me the reported TGI for Oc1c(CN2CCN(c3ccccc3)CC2)cc(Br)c2cccnc12 when you can.
Response: > 100 µM

Query: Consider the compound C=CC(C)(C)C(=C)C(=O)Nc1ccccc1I . State its measured TGI.
Response: > 100 µM

Query: Please give the documented TGI of Cc1cc(C(=O)c2ccccc2)c(C)c2c1[nH]c1ccc(Cl)cc12
Response: 35.1 µM

Query: Complete the entry with TGI for Cc1cc(I)cc(CN(C)CCCN2CCN(C)CC2)c1O
Response: > 100 µM

Query: Dear colleague, please send me the reported TGI for Cc1ccc(N=C2C(=Nc3ccc(C)cc3)N(c3ccc(C)cc3)C(=S)N2C(=O)c2ccccc2)cc1 when you can.
Response: > 100 µM

Query: For the compound CCCCCCCCCCCCCC(=O)N(CCCCCCCCC)CC(O)C(O)C(OC1OC(CO)C(O)C(O)C1O)C(O)CO (configuration not stated) , report TGI.
Response: 44 µM

Query: Query TGI for CC(C)=CCCC(C)C1=C(O)C(=O)C(C)=CC1=O (configuration not stated)
Response: > 62.4 µM

Query: Name the recorded TGI of the item CC(=O)c1nc2ccccc2n1CC(=O)c1cccc(Cl)c1 in your answer.
Response: > 100 µM

Query: Recall and state the measured TGI for [N-]=[N+]=Nc1c([N+](=O)[O-])c(=O)n2c3c(cccc13)CCC2 .
Response: > 100 µM

Query: Write down TGI measured for item CC(=O)/C(=C/N1CCNC1=S)C(=O)Nc1ccccc1C
Response: > 100 µM
